Molecular target: human histamine H3 receptor (Homo sapiens)
Construct: One microgram of supercoiled H3 receptor cDNA was added to the cells and mixed; expressed in transfected cells; membranes prepared from cell pellets
Sequence (Q9Y5N1 whole entry): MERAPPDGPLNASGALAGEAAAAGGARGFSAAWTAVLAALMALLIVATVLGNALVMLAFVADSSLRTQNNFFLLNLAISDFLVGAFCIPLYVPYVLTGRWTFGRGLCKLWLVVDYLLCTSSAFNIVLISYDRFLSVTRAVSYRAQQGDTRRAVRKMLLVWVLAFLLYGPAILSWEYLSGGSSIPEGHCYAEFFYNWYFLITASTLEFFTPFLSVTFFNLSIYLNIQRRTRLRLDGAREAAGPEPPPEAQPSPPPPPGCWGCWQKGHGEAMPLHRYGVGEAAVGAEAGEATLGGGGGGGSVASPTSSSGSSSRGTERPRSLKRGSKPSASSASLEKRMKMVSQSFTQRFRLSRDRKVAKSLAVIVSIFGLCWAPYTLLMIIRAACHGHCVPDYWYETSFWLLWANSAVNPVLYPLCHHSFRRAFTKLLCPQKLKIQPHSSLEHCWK
Assay: [3H]-N-methylhistamine binding
Details: membranes of histamine H3 receptor-expressing SK-N-MC cells; 0.8 nM [3H]-N-methylhistamine; 45 min at 25° C.; read-out: Ki
pKi: −log10 of the molar value.
VALUE KIND: pKi

The examples below pair each entry with its known result.
- MOLECULE: "NC(=O)C1CCN(Cc2cccc(C#CCCN3CCCCC3)c2)CC1"
  TEST TARGET: "human histamine H3 receptor (Homo sapiens)"
  pKi: 8.70
- MOLECULE: "C(#Cc1ccc(CN2CCCCC2)cc1)CCN1CCCCC1"
  TEST TARGET: "human histamine H3 receptor (Homo sapiens)"
  pKi: 8.80
- MOLECULE: "CCN(CC)CCC#Cc1ccc(CN2CCCCC2)cc1"
  TEST TARGET: "human histamine H3 receptor (Homo sapiens)"
  pKi: 8.62

(1) CCN(CC)C(=O)C1CCCN(Cc2cccc(C#CCCN3CCCCC3)c2)C1 (centres unmarked)
(2) CC(C)(C)OC(=O)N1CCN(Cc2ccc(C#CCCN3CCCCC3)cc2)CC1
(3) C(#Cc1cccc(CN2CCCC2)c1)CCN1CCCCC1
(4) C(#Cc1cccc(CNc2ccccc2)c1)CCN1CCCCC1
(5) OCCC1CCCCN1Cc1ccc(C#CCCN2CCCCC2)cc1 (centres unmarked)
Provide the items ranked by increasing pKi. Labels, ranked as asked. 4, 2, 1, 3, 5

(1) C(#Cc1ccc(CN2CCC(Cc3ccccc3)CC2)cc1)CCN1CCCCC1
(2) C(#Cc1cccc(CN2CCCCC2)c1)CCN1CCCCC1
(3) C(#Cc1cccc(CN2CCCCCCCCCCCC2)c1)CCN1CCCCC1
Rank the 3 molecules: largest pKi first, smallest last. Labels, ranked as asked. 2, 1, 3
(2: 9.10, 1: 8.54, 3: 7.89)
